# System: diaphorase
# test method notes: fluorescently labeled diaphorase binding to peptide array with or without excess FAD
# setup conditions: ratio of binding without FAD to binding with FAD, 1 micromolar diaphorase
The following sequences are listed with their measured 1 microM noFAD/FAD values.
API note: the answer field is a bare number with no unit suffix.

What does the record list as 1 microM noFAD/FAD for PRSFGYNNVGGSG [array peptide with C-terminal GSG linker] ? 2.709

What does the record list as 1 microM noFAD/FAD for QLLQLLFGGSG [array peptide with C-terminal GSG linker] ? 0.5115

What does the record list as 1 microM noFAD/FAD for YVWGLELSGGSG [array peptide with C-terminal GSG linker] ? 0.5561

What does the record list as 1 microM noFAD/FAD for EAVQKLLFSGSG [array peptide with C-terminal GSG linker] ? 0.6023

What does the record list as 1 microM noFAD/FAD for KPLAVQKVGSG (KPLAVQKVFGSG) [array peptide with C-terminal GSG linker] ? 9.386

What does the record list as 1 microM noFAD/FAD for RPLQVQRGGSG [array peptide with C-terminal GSG linker] ? 0.3749

What does the record list as 1 microM noFAD/FAD for EGYANKLLALFSGSG [array peptide with C-terminal GSG linker] ? 0.5987

What does the record list as 1 microM noFAD/FAD for RSHPKHNVGSG [array peptide with C-terminal GSG linker] ? 0.504

What does the record list as 1 microM noFAD/FAD for PRYSGQYGGSG [array peptide with C-terminal GSG linker] ? 2.607
